From: patent US20230265116A1

Molecular target: EGFR L858R/T790M/C797S (BaF3-LTC cells) (Homo sapiens, UniProt P00533, C797S/L858R/T790M)
Construct: expressed in transfected cells; host or cells: BaF3
Sequence (P00533 25-1210 T790M/C797S/L858R): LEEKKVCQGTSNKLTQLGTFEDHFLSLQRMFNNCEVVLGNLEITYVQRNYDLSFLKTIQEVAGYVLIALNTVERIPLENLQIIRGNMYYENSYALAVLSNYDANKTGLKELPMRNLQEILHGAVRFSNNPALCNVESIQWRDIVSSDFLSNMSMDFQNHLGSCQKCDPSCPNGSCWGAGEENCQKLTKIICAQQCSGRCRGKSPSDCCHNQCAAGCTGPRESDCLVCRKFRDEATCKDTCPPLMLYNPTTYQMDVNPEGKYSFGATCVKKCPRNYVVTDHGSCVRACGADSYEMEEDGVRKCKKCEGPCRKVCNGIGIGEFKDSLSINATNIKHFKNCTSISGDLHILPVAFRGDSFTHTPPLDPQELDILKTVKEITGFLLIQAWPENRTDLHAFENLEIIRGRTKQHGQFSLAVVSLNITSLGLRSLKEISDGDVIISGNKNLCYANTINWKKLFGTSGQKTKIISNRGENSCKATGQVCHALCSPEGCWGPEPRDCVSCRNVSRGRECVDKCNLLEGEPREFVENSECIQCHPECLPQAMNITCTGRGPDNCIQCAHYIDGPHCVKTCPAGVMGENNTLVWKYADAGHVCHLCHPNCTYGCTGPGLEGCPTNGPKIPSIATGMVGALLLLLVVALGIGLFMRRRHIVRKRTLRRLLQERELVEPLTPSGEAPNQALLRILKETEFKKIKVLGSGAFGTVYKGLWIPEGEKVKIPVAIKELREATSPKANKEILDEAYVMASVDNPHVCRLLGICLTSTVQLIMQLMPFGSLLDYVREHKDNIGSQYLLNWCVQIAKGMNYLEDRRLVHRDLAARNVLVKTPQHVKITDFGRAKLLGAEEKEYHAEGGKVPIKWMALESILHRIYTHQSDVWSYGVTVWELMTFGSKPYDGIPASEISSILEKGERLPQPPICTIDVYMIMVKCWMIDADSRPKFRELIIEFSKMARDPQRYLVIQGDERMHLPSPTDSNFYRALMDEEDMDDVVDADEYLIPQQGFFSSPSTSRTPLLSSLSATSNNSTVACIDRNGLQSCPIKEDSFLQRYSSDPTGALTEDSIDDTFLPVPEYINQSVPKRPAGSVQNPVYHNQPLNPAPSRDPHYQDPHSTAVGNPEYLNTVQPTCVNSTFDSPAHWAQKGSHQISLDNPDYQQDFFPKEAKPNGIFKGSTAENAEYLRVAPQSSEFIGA
Assay: EGFR degradation HTRF assay, BaF3-LTC cells
Format: cell-based
Settings: BaF3-LTC cells; EGFR degradation, IC50 (DC50) from curve fit; read-out: DC50(nM) BaF3-LTC
Hi! Just check whether DC50 is below 8 nM. Below gives class 1, equal or above gives class 0.

CCc1cc(Nc2ncc(Br)c(Nc3cc(F)c4nc(C)ccc4c3P(C)(C)=O)n2)c(OC)cc1N1CCC(N2CCN(CCc3ccc4c(c3)oc(=O)n4C3CCC(=O)NC3=O)CC2)CC1 (stereo not shown): class 1
CCOc1cc(N2CCC(N3CCN(C(=O)[C@H]4CN(c5cc(F)c([C@H]6CCC(=O)NC6=O)c(F)c5)CC4(C)C)CC3)CC2)c(CC)cc1Nc1ncc(Br)c(Nc2ccc3nc(C)ccc3c2P(C)(C)=O)n1: class 0
CCOc1cc(N2CCC(N3CCN(CCc4cc(OC)cc5c4oc(=O)n5C4CCC(=O)NC4=O)CC3)CC2)c(CC)cc1Nc1ncc(Br)c(Nc2ccc3nc(CC)ccc3c2P(C)(C)=O)n1 (stereo not shown): class 0
CCOc1cc(N2CCC(N3CCN(CCc4cccc5c4oc(=O)n5C4CCC(=O)NC4=O)CC3)CC2)c(CC)cc1Nc1ncc(Br)c(Nc2cc(F)c3nc(CC)ccc3c2P(C)(C)=O)n1 (stereo not shown): class 1

Attention now shifts to the item below.
Ask | Please state whether DC50 is below 8 nM for CCc1cc(Nc2ncc(Br)c(Nc3ccc4nc(C)ccc4c3P(C)(C)=O)n2)c(OC2CC2)cc1N1CCC(N2CCN(C(=O)[C@@H]3CCN(c4cc(F)c([C@H]5CCC(=O)NC5=O)c(F)c4)C3)CC2)CC1
Reply | class 0
